Tested on: Ks5A7
Construct: full length, 452 aa, 52,509 Da (53,573 Da tagged), C-terminal 6xHis tag (pET29b, primer-encoded LE linker) kept; E. coli Rosetta (DE3); ~160 kDa by gel filtration; GH1; N-terminus from primer MMKFNENFVWG, C-terminus IEENGENL; silent NdeI site removal
Test: released glucose, Amplex Red glucose oxidase assay
Assay type: biochemical, metagenome (uncultured bacterium, Kusaya gravy)
Conditions: McIlvaine buffer pH 5.5, 45°C
RECORDED METRIC: Km (µM)
Reply numerically in µM, unit not repeated.

OC[C@H]1O[C@@H](O[C@H]2[C@H](O)[C@@H](O)C(O)O[C@@H]2CO)[C@H](O)[C@@H](O)[C@@H]1O (stereo partly shown)
358
OC[C@H]1O[C@@H](O[C@H]2[C@H](O)[C@@H](O)[C@H](O[C@H]3[C@H](O)[C@@H](O)[C@H](O[C@H]4[C@H](O)[C@@H](O)C(O)O[C@@H]4CO)O[C@@H]3CO)O[C@@H]2CO)[C@H](O)[C@@H](O)[C@@H]1O (stereo partly shown)
160
OC[C@H]1O[C@@H](O[C@H]2[C@H](O)[C@@H](O)[C@H](O[C@H]3[C@H](O)[C@@H](O)[C@H](O[C@H]4[C@H](O)[C@@H](O)[C@H](O[C@H]5[C@H](O)[C@@H](O)C(O)O[C@@H]5CO)O[C@@H]4CO)O[C@@H]3CO)O[C@@H]2CO)[C@H](O)[C@@H](O)[C@@H]1O (stereo partly shown)
132

Attention now turns to another entry.
[Q] Item under review: OC[C@H]1O[C@@H](O[C@H]2[C@H](O)[C@@H](O)[C@H](O[C@H]3[C@H](O)[C@@H](O)C(O)O[C@@H]3CO)O[C@@H]2CO)[C@H](O)[C@@H](O)[C@@H]1O (stereo partly shown) . Reported Km?
[A] 163
